Assay Remarks: physchem
Test Parameters: water, thermodynamic from solid, Solubilities
Kindly state solubility for each of the entries shown.
Return type: number; implicit unit µg/mL.

Enquiry: What value of solubility has been recorded for this entry: COc1ccc2c(c1)c(CC(=O)O)c(C)n2C(=O)c1ccc(Cl)cc1
Return: 28.5

Enquiry: What value of solubility has been recorded for this entry: O=C1CCc2ccc(OCCCCN3CCN(c4cccc(Cl)c4Cl)CC3)cc2N1
Return: 0.94

Enquiry: What value of solubility has been recorded for this entry: CCOc1cc([C@@H](CS(C)(=O)=O)N2C(=O)c3cccc(NC(C)=O)c3C2=O)ccc1OC
Return: 21.8
